Type: physicochemical
Conditions: acetone, organic solvent or mixture; read-out: Approximate solubility
METRIC: solubility

Please give the measured solubility for this molecule: [2H][C@@]12C[C@H](/C(=C\OC)C(=O)OC)[C@H](CC)CN1CCc1c2[nH]c2cccc(OC)c12 [3-DM free base, 3-deuteromitragynine]
> 38 mg/mL

* * *

Assay: Approximate solubility of amorphous 3-DM free base starting material in 27 solvent systems at RT
Assay type: physicochemical
Conditions: organic solvent or mixture, thermodynamic from solid, Acetone/n-Heptane (4:1), RT
METRIC: solubility

Please give the measured solubility for this molecule: [2H][C@@]12C[C@H](/C(=C\OC)C(=O)OC)[C@H](CC)CN1CCc1c2[nH]c2cccc(OC)c12 [3-DM free base, 3-deuteromitragynine]
> 42 mg/mL
